Provenance of the data: patent US20230348573A1

Catalogue of IC50 of pseudovirus infection (luciferase) values
- SYSTEM UNDER TEST: spike protein of SARS-CoV-2 B.1.1.482 strain on pseudovirus (SARS-CoV-2 (B.1.1.482 strain))
- ASSAY PROCEDURE: cell-based or functional assay
Answer with a number only, understood to be in µg/mL.

Notebook: Ab712 (antibody, V domains shown) VH: QVQLVQSGSELKKPGASVKISCKASGYTFINHAINWVRQAPGQGLEWMGWINTNTGNPTYAPGFTGRFVFSLDTSVSTAYLQISSLKAEDTAVYYCARIPIRDYDYDGSGYYYFLDYWGQGTLVTVSS VL: SYELTQDPAVSVALGQTVRITCQGDSLRSSSASWYQQKPGQAPVLVIYGKTNRPSGIPDRFSGSSSGNTASLTITGAQAEDEADYYCNSRDNSGNHPVVFGGGTKLTVL , IC50 of pseudovirus infection (luciferase) read as 0.0164

Notebook: Ab765 (antibody, V domains shown) VH: QVQLVESGGGVVQPGRSLRLSCAASGFTFSDYAIHWVRQAPGRGLEPVALISYDGNNKYYADSVKGRFTISRDNSKNVLYLQMNSLRADDTAVYYCARDAEGGWVAALDYWGQGTLVTVSS VL: QSALTQPRSVSGSPGQSVTISCTGTSSDVGGYNYVSWYQHHPGKAPKVMIYEVSKRPSGVPDRFSGSKSGTTASLTISGLQAEDEADYYCCSYAGTYPYVFGTGTKVTVL , IC50 of pseudovirus infection (luciferase) read as 0.0117

Notebook: Ab496 (antibody, V domains shown) VH: EVQLVQSGPEVKKPGTSVKVSCKASGFIFTNSAVQWVRQARGQRLEWIGWIVVGSGNPNYAQKFQERVTITRDRSTSTAYMELSSLTSEDTAVYYCAAFPYYYDNSGSGPWGQGTLVTVSS VL: DIQLTQSPSSLSASVGDRVTITCQASQDIRNNLNWYQQIPGKAPKLLIYDASNLETGVPSRFSGSASGTDFTFTISSLQPEDVATYYCQQYANLPPFTFGPGTKVDIK , IC50 of pseudovirus infection (luciferase) read as 0.0506

Notebook: Ab816 (antibody, V domains shown) VH: QVQLVQSGAEVKKPGESLMISCKASGYNFRNYWIAWVRQMPGKGLEWMGIIHPGDSDIRYRPSLQGHVTISADKSITTAYLQWGSLKASDTAMYYCTRITTDADSSGLFHYWGQGTLVTVSS VL: EIVLTQSPSTLSASVGDRVTITCRASQNIYTWLAWYQRKPGKAPKVLIYKASSLESGVPSRFSGSGSGTEFTLTISSLQPDDFATYYCQQYKSAWSFGQGTKVEIK , IC50 of pseudovirus infection (luciferase) read as 0.0396

Notebook: Ab709TK (antibody, V domains shown) VH: QVQLVESGGGVVQPGKSLRLSCAASGFTFSSYAMHWVRLAPGKGLEWVAVISPDGKNKYYVDSVKGRSTISRDNSKNTLYLLMNSLRAEDTAVYYCATTQSLWFGQFYYIYGMDVWGQGTTVTVSS VL: QSVLTQPHSVSESPGKTITISCTGSSGSIASNYVQWYQQRPGSAPTTVIYEDTERPSGVPDRFSGSIDSSSNSASLTISGLKTEDEADYYCQSYDSNNVVFGGGTKLTVL , IC50 of pseudovirus infection (luciferase) read as 0.172

From here, focus on the item given below.
Notebook: Ab803 (antibody, V domains shown) VH: EVQLVESGGGLVQPGRSLRVSCAASGFTFDDYAMHWVRQTPRKGLEWVAGISRNSAAIAYADSVKGRFTISRDNAKNSVFLQMNGLRADDTALYYCVKSPRYGWGSPDYSFDFWGRGTLVTVSS VL: DIQLTQSPSSLSASVGDRVTITCRASQNIGTYLNWYQQEPGKAPKLLIYAASSLQSGVPSRFSGSGSGTDFTLTISSLQPEDFATYCCQQSFTTPLTFGQGTKVEIK , IC50 of pseudovirus infection (luciferase) read as 0.144
